TEST SUMMARY: The drug is tested on Odoribacter splanchnicus strain: fecal isolate for biotransformation. The drug concentrations were measured before and after a 12-h incubation by liquid-chromatography-coupled mass spectrometry (LC–MS)
TEST CONTEXT: 2 µM
MEASURED METRIC: Bacterial Biotransformation

Would you please look over these solved cases?
Cc1ccc(S(=O)(=O)NC(=O)NN2CC3CCCC3C2)cc1 (configuration not stated) [GLICLAZIDE]; Compound NOT metabolized
Cc1ccc(NC(=O)c2ccc(CN3CCN(C)CC3)cc2)cc1Nc1nccc(-c2cccnc2)n1 [IMATINIB]; Compound NOT metabolized
O=C1C(CC[S+]([O-])c2ccccc2)C(=O)N(c2ccccc2)N1c1ccccc1 (configuration not stated) [SULFINPYRAZONE]; Compound metabolized
CC(O)(CS(=O)(=O)c1ccc(F)cc1)C(=O)Nc1ccc(C#N)c(C(F)(F)F)c1 (configuration not stated) [BICALUTAMIDE]; Compound metabolized
O=C(O)c1cc(/N=N/c2ccc(S(=O)(=O)Nc3ccccn3)cc2)ccc1O [SULFASALAZINE]; Compound metabolized

Any idea what its Bacterial Biotransformation is? The compound is CCCCC(=O)N(Cc1ccc(-c2ccccc2-c2nnn[nH]2)cc1)[C@H](C(=O)O)C(C)C
Compound metabolized

Any idea what its Bacterial Biotransformation is? The compound is CN(C)CCC=C1c2ccccc2C=Cc2ccccc21 [CYCLOBENZAPRINE]
Compound NOT metabolized

Any idea what its Bacterial Biotransformation is? The compound is CN(C)CC(c1ccc(O)cc1)C1(O)CCCCC1.O=C(O)CCC(=O)O (configuration not stated) [DESVENLAFAXINE SUCCINATE]
Compound NOT metabolized

Any idea what its Bacterial Biotransformation is? The compound is COc1ccccc1OCCNCC(O)COc1cccc2[nH]c3ccccc3c12 (configuration not stated) [CARVEDILOL]
Compound NOT metabolized

Any idea what its Bacterial Biotransformation is? The compound is CC#CCn1c(N2CCC[C@@H](N)C2)nc2c1c(=O)n(Cc1nc(C)c3ccccc3n1)c(=O)n2C [LINAGLIPTIN]
Compound metabolized

Any idea what its Bacterial Biotransformation is? The compound is CC(C(=O)O)c1ccc2c(c1)Cc1cccnc1O2 (configuration not stated) [PRANOPROFEN]
Compound metabolized

Any idea what its Bacterial Biotransformation is? The compound is Nc1nc(N)nc(-c2cc(Cl)ccc2Cl)n1.O=C(O)/C=C\C(=O)O [IRSOGLADINE MALEATE]
Compound NOT metabolized

Any idea what its Bacterial Biotransformation is? The compound is CN(C)CCOC(c1ccc(Cl)cc1)c1ccccn1.O=C(O)/C=C\C(=O)O (configuration not stated) [CARBINOXAMINE MALEATE]
Compound NOT metabolized

Any idea what its Bacterial Biotransformation is? The compound is C#C[C@]1(OC(C)=O)CC[C@H]2[C@@H]3CCC4=C[C@@H](OC(C)=O)CC[C@@H]4[C@H]3CC[C@@]21C [ETHYNODIOL DIACETATE]
Compound NOT metabolized

Any idea what its Bacterial Biotransformation is? The compound is NS(=O)(=O)c1cc2c(cc1Cl)N=C(CSCc1ccccc1)NS2(=O)=O [BENZTHIAZIDE]
Compound NOT metabolized

Any idea what its Bacterial Biotransformation is? The compound is C[C@@H](c1ncncc1F)[C@](O)(Cn1cncn1)c1ccc(F)cc1F [VORICONAZOLE]
Compound metabolized

Any idea what its Bacterial Biotransformation is? The compound is COc1c(C)c2c(c(O)c1C/C=C(\C)CCC(=O)OCCN1CCOCC1)C(=O)OC2 [MYCOPHENOLATE MOFETIL]
Compound metabolized

----------
TEST SUMMARY: The drug is tested on Blautia hansenii strain: DSM20583 for biotransformation. The drug concentrations were measured before and after a 12-h incubation by liquid-chromatography-coupled mass spectrometry (LC–MS)
TEST CONTEXT: 2 µM
MEASURED METRIC: Bacterial Biotransformation

Would you please look over these solved cases?
O=C(O)CCC(=O)O.O=C(O[C@H]1CN2CCC1CC2)N1CCc2ccccc2[C@@H]1c1ccccc1 [SOLIFENACIN SUCCINATE]; Compound NOT metabolized
CCCCC1=NC2(CCCC2)C(=O)N1Cc1ccc(-c2ccccc2-c2nnn[nH]2)cc1; Compound metabolized
COC1=CC(=O)C[C@@H](C)[C@]12Oc1c(Cl)c(OC)cc(OC)c1C2=O; Compound metabolized
C=CCN1CC[C@]23c4c5ccc(O)c4O[C@H]2C(=O)CC[C@@]3(O)[C@H]1C5; Compound metabolized
CC(=O)OCC(CCn1cnc2cnc(N)nc21)COC(C)=O; Compound NOT metabolized
COC(=O)Nc1nc2ccc(C(=O)c3ccccc3)cc2[nH]1; Compound metabolized

Any idea what its Bacterial Biotransformation is? The compound is COc1ccc2c3c1O[C@H]1C[C@@H](O)C=C[C@@]31CCN(C)C2
Compound NOT metabolized

Any idea what its Bacterial Biotransformation is? The compound is CN1C(C(=O)Nc2ccccn2)=C(O)c2sccc2S1(=O)=O
Compound NOT metabolized

Any idea what its Bacterial Biotransformation is? The compound is Cc1ccnc2c1NC(=O)c1cccnc1N2C1CC1
Compound metabolized

Any idea what its Bacterial Biotransformation is? The compound is O=C(NC(Cc1cc(=O)[nH]c2ccccc12)C(=O)O)c1ccc(Cl)cc1 (stereo not drawn) [REBAMIPIDE]
Compound NOT metabolized

----------
TEST SUMMARY: The drug is tested on Collinsella aerofaciens strain: ATCC25986 for biotransformation. The drug concentrations were measured before and after a 12-h incubation by liquid-chromatography-coupled mass spectrometry (LC–MS)
TEST CONTEXT: 2 µM
MEASURED METRIC: Bacterial Biotransformation

Would you please look over these solved cases?
CNNCc1ccc(C(=O)NC(C)C)cc1; Compound NOT metabolized
Cc1ccnc2c1NC(=O)c1cccnc1N2C1CC1; Compound NOT metabolized
CCOC(=O)[C@H](CCc1ccccc1)N[C@@H](C)C(=O)N1Cc2ccccc2C[C@H]1C(=O)O; Compound NOT metabolized
CC(O)(CS(=O)(=O)c1ccc(F)cc1)C(=O)Nc1ccc(C#N)c(C(F)(F)F)c1 (configuration not stated) [BICALUTAMIDE]; Compound NOT metabolized
N=C(N)NC(=O)Cc1c(Cl)cccc1Cl; Compound NOT metabolized
Cc1cc2c(s1)Nc1ccccc1N=C2N1CCN(C)CC1; Compound NOT metabolized
COc1ccccc1N1CCN(CC(O)COc2cccc3ccccc23)CC1 (configuration not stated); Compound NOT metabolized
CC1=C(CC(=O)O)c2cc(F)ccc2/C1=C\c1ccc([S+](C)[O-])cc1 (configuration not stated); Compound NOT metabolized
O=C1N=C([O-])NC1(c1ccccc1)c1ccccc1.[Na+] [PHENYTOIN SODIUM]; Compound metabolized
C[C@]12C=CC(=O)C=C1CC[C@@H]1[C@@H]2C(=O)C[C@@]2(C)[C@H]1CC[C@]2(O)C(=O)CO; Compound NOT metabolized

Any idea what its Bacterial Biotransformation is? The molecule is CCCC(C)(COC(N)=O)COC(=O)NC(C)C (configuration not stated)
Compound metabolized

Any idea what its Bacterial Biotransformation is? The molecule is CCN(CC)CCNC(=O)c1cc(S(C)(=O)=O)ccc1OC [TIAPRIDE]
Compound NOT metabolized

Any idea what its Bacterial Biotransformation is? The molecule is CNC(=C[N+](=O)[O-])NCCSCc1csc(CN(C)C)n1
Compound metabolized

Any idea what its Bacterial Biotransformation is? The molecule is CN1CCc2c(c3ccccc3n2Cc2ccccc2)C1.CN1CCc2c(c3ccccc3n2Cc2ccccc2)C1.O=S(=O)(O)c1cccc2c(S(=O)(=O)O)cccc12
Compound NOT metabolized

Any idea what its Bacterial Biotransformation is? The molecule is CCCC(=O)Nc1ccc(OCC(O)CNC(C)C)c(C(C)=O)c1 (configuration not stated)
Compound NOT metabolized

----------
TEST CONTEXT: bacteroides eggerthii, 12 h, 2 µM
MEASURED METRIC: Bacterial Biotransformation

Would you please look over these solved cases?
COc1cc2nc(N3CCN(C(=O)C4COc5ccccc5O4)CC3)nc(N)c2cc1OC.CS(=O)(=O)O (configuration not stated) [DOXAZOSIN MESYLATE]; Compound NOT metabolized
O=C(NC(Cc1cc(=O)[nH]c2ccccc12)C(=O)O)c1ccc(Cl)cc1 (configuration not stated) [REBAMIPIDE]; Compound NOT metabolized
CN/C(=N/CCSCc1nc[nH]c1C)NC#N [CIMETIDINE]; Compound NOT metabolized
Cc1nc2n(c(=O)c1CCN1CCC(c3noc4cc(F)ccc34)CC1)CCCC2O (configuration not stated) [PALIPERIDONE]; Compound metabolized
CCN(CC)CCCC(C)Nc1c2ccc(Cl)cc2nc2ccc(OC)cc12 (configuration not stated) [QUINACRINE]; Compound NOT metabolized
O=C1[C@H](CC[C@H](O)c2ccc(F)cc2)[C@@H](c2ccc(O)cc2)N1c1ccc(F)cc1 [EZETIMIBE]; Compound NOT metabolized

Any idea what its Bacterial Biotransformation is? The compound is N#Cc1ccc(C(c2ccc(C#N)cc2)n2cncn2)cc1 [LETROZOLE]
Compound NOT metabolized

Any idea what its Bacterial Biotransformation is? The compound is CN1CCN(C2=Nc3ccccc3Oc3ccc(Cl)cc32)CC1.O=C(O)CCC(=O)O [LOXAPINE SUCCINATE]
Compound NOT metabolized

Any idea what its Bacterial Biotransformation is? The compound is COC1=CC(=O)C[C@@H](C)[C@]12Oc1c(Cl)c(OC)cc(OC)c1C2=O [GRISEOFULVIN]
Compound metabolized

Any idea what its Bacterial Biotransformation is? The compound is CC[C@H](C)C(=O)O[C@H]1C[C@@H](C)C=C2C=C[C@H](C)[C@H](CC[C@@H]3C[C@@H](O)CC(=O)O3)[C@H]21 [LOVASTATIN]
Compound NOT metabolized

Any idea what its Bacterial Biotransformation is? The compound is CC(C)OC(=O)C(C)(C)Oc1ccc(C(=O)c2ccc(Cl)cc2)cc1 [FENOFIBRATE]
Compound metabolized

Any idea what its Bacterial Biotransformation is? The compound is CC(Oc1c(Cl)cccc1Cl)C1=NCCN1 (configuration not stated) [LOFEXIDINE]
Compound metabolized

Any idea what its Bacterial Biotransformation is? The compound is COc1ccnc(C[S+]([O-])c2nc3ccc(OC(F)F)cc3[nH]2)c1OC (configuration not stated) [PANTOPRAZOLE]
Compound metabolized

Any idea what its Bacterial Biotransformation is? The compound is COc1ccc(CCN(C)CCCC(C#N)(c2ccc(OC)c(OC)c2)C(C)C)cc1OC (configuration not stated)
Compound NOT metabolized

Any idea what its Bacterial Biotransformation is? The compound is CN[C@H]1CC[C@@H](c2ccc(Cl)c(Cl)c2)c2ccccc21 [SERTRALINE]
Compound NOT metabolized

Any idea what its Bacterial Biotransformation is? The compound is CCOC(=O)C1=C(C)NC(C)=C(C(=O)OC)C1c1cccc([N+](=O)[O-])c1 (configuration not stated) [NITRENDIPINE]
Compound metabolized

Any idea what its Bacterial Biotransformation is? The compound is Cc1ccccc1N1C(=O)c2cc(S(N)(=O)=O)c(Cl)cc2NC1C (configuration not stated) [METOLAZONE]
Compound NOT metabolized

Any idea what its Bacterial Biotransformation is? The compound is CCCCC(=O)N(Cc1ccc(-c2ccccc2-c2nnn[nH]2)cc1)[C@H](C(=O)O)C(C)C
Compound NOT metabolized

Any idea what its Bacterial Biotransformation is? The compound is CC(=O)OCC(=O)[C@@]1(OC(C)=O)[C@@H](C)C[C@H]2[C@@H]3C[C@H](F)C4=CC(=O)C=C[C@]4(C)[C@@]3(F)[C@@H](O)C[C@@]21C [DIFLORASONE DIACETATE]
Compound metabolized
